- System: normal rats
- assay_details: Effect on blood pressure of normal rats by single oral administration
- Assay type: in vivo, Wistar rats
- condition_set: Rattus norvegicus, po, 8 h; 1.0 mg/kg p.o., single, normal rats; read-out: blood pressure reduction at 8 h after the administration
Quick list: inhibition in vivo at 1 mg/kg per entry.

molecule | reported_metric | value_reported
CCOc1nc2cccc(C(=O)ONC(=N)Nc3ccccc3)c2n1Cc1ccc(-c2ccccc2-c2noc(=O)[nH]2)cc1 [QR01012] | inhibition in vivo at 1 mg/kg | 3.9%

According to the records, this molecule CCOc1nc2cccc(C(=O)OCc3c(-c4ccccc4)no[n+]3[O-])c2n1Cc1ccc(-c2ccccc2-c2noc(=O)[nH]2)cc1 [QR01009] displays inhibition in vivo at 1 mg/kg of 5.6%

Notebook: CCOc1nc2cccc(C(=O)OCOC(=O)OC(C)C)c2n1Cc1ccc(-c2ccccc2-c2noc(=O)[nH]2)cc1 [QR01002] , inhibition in vivo at 1 mg/kg read as 6.4%

# inhibition in vivo at 1 mg/kg (molecule: CCOc1nc2cccc(C(=O)OCc3no[n+]([O-])c3C)c2n1Cc1ccc(-c2ccccc2-c2noc(=O)[nH]2)cc1 [QR01023] ) is 3.6%

// CCOc1nc2cccc(C(=O)OCOC(=O)OCc3cn(C)cn3)c2n1Cc1ccc(-c2ccccc2-c2noc(=O)[nH]2)cc1 [QR01031] : inhibition in vivo at 1 mg/kg value = 4.5%
